This collection of values is drawn from patent US20250171438A1.

# AC50 values compiled below
# TARGET_OR_TEST_SYSTEM: human PAH with the R408W mutation (Homo sapiens, UniProt P00439, R408W)
# Construct: expressed in transfected cells
# Sequence (P00439 1-452 R408W): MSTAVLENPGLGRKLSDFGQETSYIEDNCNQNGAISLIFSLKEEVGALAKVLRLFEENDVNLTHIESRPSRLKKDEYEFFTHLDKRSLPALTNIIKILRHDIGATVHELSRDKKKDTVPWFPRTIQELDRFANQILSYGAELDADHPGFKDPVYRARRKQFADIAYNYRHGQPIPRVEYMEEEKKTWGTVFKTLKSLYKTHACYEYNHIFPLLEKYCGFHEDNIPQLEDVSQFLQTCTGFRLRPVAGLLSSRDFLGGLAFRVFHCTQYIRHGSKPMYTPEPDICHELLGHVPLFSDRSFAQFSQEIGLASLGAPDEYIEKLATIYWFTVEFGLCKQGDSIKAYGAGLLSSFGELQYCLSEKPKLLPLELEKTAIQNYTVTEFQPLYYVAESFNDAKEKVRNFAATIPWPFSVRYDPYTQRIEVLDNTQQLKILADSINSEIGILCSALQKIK
# ASSAY_NOTES: Cell Based Phenylalanine Flux Assay
# REPORTED_CONDITIONS: A375 cells expressing human R408W PAH; 24 hrs compound incubation; 13C-Tyrosine by LC-MS; average where tested multiple times; read-out: AC50

O=C(c1nnc(-c2cnn(C(F)F)c2)o1)N1CCc2[nH]cnc2[C@@H]1c1nc2ccccc2s1 [Example 1778]    > 5000 nM
O=C(c1cnc(Cc2ccccc2)s1)N1CCc2[nH]cnc2[C@@H]1c1nc2ccccc2s1 [Example 1228]    1000 to 5000 nM
Cc1nc(-c2cnn(CC(F)(F)F)c2)oc1C(=O)N1CCc2[nH]cnc2[C@@H]1c1nc2c(F)cccc2s1 [Example 1505]    1000 to 5000 nM
Clc1cnc(CN2CCc3[nH]cnc3[C@H]2c2nc3ccccc3[nH]2)s1 [Example 980]    500 to 1000 nM
O=C(c1nnc(-c2cc(C(F)(F)F)ccn2)o1)N1CCc2[nH]cnc2[C@H]1c1nc2c(F)cccc2s1 [Example 1906]    < 500 nM

Record CC(C)(F)c1ncc(C(=O)N2CCc3[nH]cnc3[C@@H]2c2nc3c(F)cccc3s2)o1 [Example 1488] . Reported AC50: 500 to 1000 nM

Record Cc1nc(CCCN2CC(F)C2)oc1C(=O)N1CCc2[nH]cnc2[C@@H]1c1nc2ccccc2s1 [Example 1672] . Reported AC50: > 5000 nM

Record O=C(c1nnc(-c2ccc(C(F)(F)F)cc2)o1)N1CCc2[nH]cnc2[C@H]1c1nc2ccccc2s1 [Example 1768] . Reported AC50: 500 to 1000 nM

Record O=C(c1cnn(CC(F)(F)F)c1C(F)F)N1CCc2[nH]cnc2[C@H]1c1nc2ccccc2s1 [Example 1973] . Reported AC50: < 500 nM

Record C[C@H](O)c1nc(C(F)F)c(C(=O)N2CCc3[nH]cnc3[C@@H]2c2nc3c(F)cccc3s2)o1 [Example 1962] . Reported AC50: 1000 to 5000 nM

Record O=C(c1cnc(-c2c(F)cccc2F)s1)N1CCc2[nH]cnc2[C@H]1c1nc2ccccc2s1 [Example 1509] . Reported AC50: < 500 nM

Record CC(C)(O)c1ncc(C(=O)N2CCc3[nH]cnc3[C@@H]2c2nc3ccccc3s2)o1 [Example 1447] . Reported AC50: 1000 to 5000 nM

Record O=C(c1cncs1)N1CCc2[nH]cnc2[C@H]1c1nc2ccccc2[nH]1 [Example 914] . Reported AC50: 500 to 1000 nM

Record Fc1ccc2nc([C@@H]3c4nc[nH]c4CCN3Cc3nccs3)[nH]c2c1 [Example 974] . Reported AC50: < 500 nM

Record COCCc1ccc2c(C(=O)N3CCc4[nH]cnc4[C@@H]3c3nc4ccccc4s3)cnn2c1 [Example 1452] . Reported AC50: > 5000 nM

Record O=C(c1nnc(-c2ccccc2)s1)N1CCc2[nH]cnc2[C@H]1c1nc2ccccc2s1 [Example 1419] . Reported AC50: < 500 nM

Record CN(C)CCn1cc(C(=O)N2CCc3[nH]cnc3[C@H]2c2nc3c(F)cccc3s2)c(C(F)(F)F)n1 [Example 1641] . Reported AC50: < 500 nM

###

# TARGET_OR_TEST_SYSTEM: human PAH with the R408W mutation (Homo sapiens, UniProt P00439, R408W)
# Construct: expressed in transfected cells
# ASSAY_NOTES: Cell Based Phenylalanine Flux Assay
# REPORTED_CONDITIONS: A375 cells expressing human R408W PAH; 24 hrs with compound; 13C-Tyrosine by LC-MS; average where tested multiple times; read-out: AC50
MEASURED_METRIC: AC50

Cc1nc(CN2CCOCC2)oc1C(=O)N1CCCc2[nH]cnc2C1c1nc2ccccc2s1 (centres unmarked)    > 5 µM
O=C(CCc1nccs1)N1CCc2[nH]cnc2C1c1nc2ccc(F)cc2[nH]1 (centres unmarked)    1 to 5 µM
O=C(c1cnn2c(Br)cccc12)N1CCc2[nH]cnc2C1c1nc2ccc(Br)cc2[nH]1 (centres unmarked)    1 to 5 µM
Cn1nnc(C(=O)N2CCc3[nH]cnc3C2c2nc3c(F)cccc3s2)n1 (centres unmarked)    > 5 µM

Consider now this further molecule.
Record O=C(c1ccn[nH]1)N1CCc2[nH]cnc2C1c1nc2ccccc2s1 (centres unmarked) . Reported AC50: 1 to 5 µM

###

# AC50 values compiled below
# TARGET_OR_TEST_SYSTEM: human PAH with the R408W mutation (Homo sapiens, UniProt P00439, R408W)
# Construct: expressed in transfected cells
# ASSAY_NOTES: Cell Based Phenylalanine Flux Assay
# REPORTED_CONDITIONS: A375 cells expressing human R408W PAH; 24 hrs compound incubation; 13C-Tyrosine by LC-MS; average where tested multiple times; read-out: AC50

Record CC(C)(O)c1nc(CF)c(C(=O)N2CCc3[nH]cnc3[C@H]2c2nc3c(F)cccc3s2)o1 . Reported AC50: < 500 nM

Record O=C(c1cncs1)N1CCc2[nH]cnc2[C@H]1c1ncc(-c2ccccc2)s1 . Reported AC50: < 500 nM

Record CC(C)n1ncnc1C(=O)N1CCc2[nH]cnc2[C@H]1c1nc2ccccc2s1 . Reported AC50: < 500 nM

Record CC1(C(=O)N2CCc3[nH]cnc3[C@@H]2c2nc3ccccc3s2)CC1(F)F (single isomer, unassigned) [Example 1290] . Reported AC50: > 5000 nM

Record O=C(c1ocnc1C(F)(F)F)N1CC2(CC2)c2[nH]cnc2[C@H]1c1nc2ccccc2s1 . Reported AC50: < 500 nM

Record Cc1cccc2sc([C@@H]3c4nc[nH]c4CCN3C(=O)c3cnn(C)c3C(F)F)nc12 . Reported AC50: 500 to 1000 nM

###

# TARGET_OR_TEST_SYSTEM: human PAH with the R408W mutation (Homo sapiens, UniProt P00439, R408W)
# Construct: expressed in transfected cells
# ASSAY_NOTES: Cell Based Phenylalanine Flux Assay
# REPORTED_CONDITIONS: A375 cells expressing human R408W PAH; 24 hrs compound incubation; 13C-Tyrosine by LC-MS; average where tested multiple times; read-out: AC50
MEASURED_METRIC: AC50

O=C(c1oc(CCC2CC2)nc1C(F)(F)F)N1CCc2[nH]cnc2[C@@H]1c1nc2c(F)cccc2s1 [Example 1626]    < 0.5 µM
O=C(c1nccs1)N1CCc2[nH]cnc2[C@H]1c1nc2ccc(Br)cc2[nH]1 [Example 933]    1 to 5 µM
O=C(CCC1CC1)N1CCc2[nH]cnc2[C@@H]1c1nc2ccc(Br)cc2[nH]1 [Example 934]    1 to 5 µM

Record Nc1cc(C(=O)N2CCc3[nH]cnc3[C@@H]2c2nc3ccccc3s2)n(C(F)F)n1 [Example 2052] . Reported AC50: 1 to 5 µM

###

# TARGET_OR_TEST_SYSTEM: human PAH with the R408W mutation (Homo sapiens, UniProt P00439, R408W)
# Construct: expressed in transfected cells
# ASSAY_NOTES: Cell Based Phenylalanine Flux Assay
# REPORTED_CONDITIONS: A375 cells expressing human R408W PAH; 24 hrs compound incubation; 13C-Tyrosine by LC-MS; average where tested multiple times; read-out: AC50
MEASURED_METRIC: AC50

Cn1nc(C(=O)N2CCc3[nH]cnc3[C@H]2c2nc3ccccc3s2)c2ccccc21    500 to 1000 nM

Reading of AC50 for O=C(c1cnn2ccc(F)cc12)N1CCc2[nH]cnc2[C@H]1c1nc2c(F)cccc2s1 with human PAH with the R408W mutation (Homo sapiens, UniProt P00439, R408W): 500 to 1000 nM

Reading of AC50 for O=C(c1ocnc1C(F)F)N1CCc2[nH]cnc2[C@@H]1c1nc2ccccc2s1 with human PAH with the R408W mutation (Homo sapiens, UniProt P00439, R408W): < 500 nM

Reading of AC50 for Cc1nnc(C(=O)N2CC3(CC3)c3[nH]cnc3[C@H]2c2nc3ccccc3s2)o1 with human PAH with the R408W mutation (Homo sapiens, UniProt P00439, R408W): 500 to 1000 nM
